system: panel of nearly 500 cancer cell lines; assay: Cancer Cell Line Encyclopedia profiling, 3-day CellTiter-Glo; assay type: cell-based; conditions: LOU-NH91
measurement-type: IC50

Query :: Identify the measured IC50 of CN(C)C(=O)c1cc2cnc(Nc3ccc(N4CCNCC4)cn3)nc2n1C1CCCC1 [Ribociclib] for panel of nearly 500 cancer cell lines.
Result :: > 8 µM

###

system: panel of nearly 500 cancer cell lines; assay: Cancer Cell Line Encyclopedia profiling, 3-day CellTiter-Glo; assay type: cell-based; conditions: snu16 (stomach); read-out: IC50
measurement-type: IC50

Query :: Which IC50 is reported for this compound? CC(=O)c1c(C)c2cnc(Nc3ccc(N4CCNCC4)cn3)nc2n(C2CCCC2)c1=O [Palbociblib]
Result :: > 8 µM
